Could you please report measured pEC50 for the items listed next?
system: HCV genotype 1b (Con1) replicon in HUH-7 cells; assay: HCV replicon luciferase reporter assay, genotype 1b; type: cell-based; conditions: Hepatitis C virus, Huh-7, 72 h, HCV genotype 1b replicon luciferase, 3 days incubation, read-out: LE_1b (EC50, range)
pEC50: −log10 of the molar value.

Request: Would you mind telling me what pEC50 value was observed for CCOc1cc2ccnc(O[C@@H]3C[C@H]4C(=O)N[C@]5(C(=O)NS(=O)(=O)C6(CF)CC6)C[C@H]5/C=C\CC[C@H](C)C[C@@H](C)[C@H](NC(=O)OC(C)(C)C)C(=O)N4C3)c2cc1F ?
Response: 8.30 to 9.00

Request: Would you mind telling me what pEC50 value was observed for C[C@H]1CC/C=C\[C@@H]2C[C@@]2(C(=O)NS(=O)(=O)C2CC2)NC(=O)[C@@H]2C[C@@H](Oc3nccc4c5c(ccc34)N(C)CCO5)CN2C(=O)[C@@H](NC(=O)OC(C)(C)C(C)(F)F)[C@H](C)C1 ?
Response: > 8.26

Request: Would you mind telling me what pEC50 value was observed for C[C@H]1CC/C=C\[C@@H]2C[C@@]2(C(=O)NS(=O)(=O)C2CC2)NC(=O)[C@@H]2C[C@@H](Oc3nccc4c5c(ccc34)OC(F)(F)O5)CN2C(=O)[C@@H](NC(=O)OCC2(C)CC2)[C@H](C)C1 ?
Response: 6.99 to 8.32

Request: Would you mind telling me what pEC50 value was observed for COc1ccc2c(O[C@@H]3C[C@H]4C(=O)N[C@]5(C(=O)NS(=O)(=O)C6CC6)C[C@H]5/C=C\CC[C@H](C)C[C@@H](C)[C@H](NC(=O)OC(C)(C)C)C(=O)N4C3)nc(-c3ccc(N4CCOCC4)cc3)cc2c1 ?
Response: > 8.26

Request: Would you mind telling me what pEC50 value was observed for COc1cnc(O[C@@H]2C[C@H]3C(=O)N[C@]4(C(=O)NS(=O)(=O)C5(CO)CC5)C[C@H]4/C=C\CC[C@@H](C)C[C@@H](C)[C@H](NC(=O)OC(C)(C)C)C(=O)N3C2)c2ccccc12 ?
Response: 6.99 to 8.32

Request: Would you mind telling me what pEC50 value was observed for CC(C)Oc1ccc2c(O[C@@H]3C[C@H]4C(=O)N[C@]5(C(=O)NS(=O)(=O)C6CC6)C[C@H]5/C=C\CC[C@@H](C)C[C@@H](C)[C@H](NC(=O)OC(C)(C)C)C(=O)N4C3)nccc2c1 ?
Response: > 8.26

Request: Would you mind telling me what pEC50 value was observed for CCOc1nnc(O[C@@H]2C[C@H]3C(=O)N[C@]4(C(=O)NS(=O)(=O)C5CC5)C[C@H]4/C=C\CC[C@H](C)C[C@@H](CC)[C@H](NC(=O)OC(C)(C)C)C(=O)N3C2)c2ccccc12 ?
Response: 6.99 to 8.32

Request: Would you mind telling me what pEC50 value was observed for CC[C@@H]1C[C@H](C)CC/C=C\[C@@H]2C[C@@]2(C(=O)NS(=O)(=O)C2(C)CC2)NC(=O)[C@@H]2C[C@@H](Oc3nccc4cc(OC)c(F)cc34)CN2C(=O)[C@H]1NC(=O)N1CC(C)OC(C)C1 (some centres unmarked) ?
Response: 8.30 to 9.00

Request: Would you mind telling me what pEC50 value was observed for CC[C@@H]1C[C@H](C)CC/C=C\[C@@H]2C[C@@]2(C(=O)NS(=O)(=O)C2CC2)NC(=O)[C@@H]2C[C@@H](Oc3nccc4cc(OC)ccc34)CN2C(=O)[C@H]1NC(=O)OC(C)(C)C ?
Response: > 8.26

Request: Would you mind telling me what pEC50 value was observed for C[C@H]1CC/C=C\[C@@H]2C[C@@]2(C(=O)NS(=O)(=O)C2CC2)NC(=O)[C@@H]2C[C@@H](Oc3nccc4c5c(ccc34)OC(F)(F)O5)CN2C(=O)[C@@H](NC(=O)OC(C)(C)C(F)(F)F)[C@H](C)C1 ?
Response: 6.99 to 8.32

Request: Would you mind telling me what pEC50 value was observed for COc1ccc2c(O[C@@H]3C[C@H]4C(=O)N[C@]5(C(=O)NS(=O)(=O)C6(C)CC6)C[C@H]5/C=C\CC[C@@H](C)C[C@@H](C)[C@H](NC(=O)NC(C)(C)C)C(=O)N4C3)nccc2c1 ?
Response: > 8.26

Request: Would you mind telling me what pEC50 value was observed for COc1ccc2c(O[C@@H]3C[C@H]4C(=O)N[C@]5(C(=O)NS(=O)(=O)C6CC6)C[C@H]5/C=C\CC[C@@H](C)C[C@@H](C)[C@H](NC(=O)OC5C[C@@H]6C[C@@H]6C5)C(=O)N4C3)nc(-c3ccc(OC(C)C)cn3)cc2c1 (some centres unmarked) ?
Response: > 8.26

Request: Would you mind telling me what pEC50 value was observed for CC[C@@H]1C[C@H](C)CC/C=C\[C@@H]2C[C@@]2(C(=O)NS(=O)(=O)C2(C)CC2)NC(=O)[C@@H]2C[C@@H](Oc3nccc4cc(OC)c(F)cc34)CN2C(=O)[C@H]1NC(=O)C(C)(C)C(F)(F)F ?
Response: 8.30 to 9.00

Request: Would you mind telling me what pEC50 value was observed for [2H]C([2H])([2H])C(OC(=O)N[C@@H]1C(=O)N2C[C@H](Oc3nn(CC)c(=O)c4ccccc34)C[C@H]2C(=O)N[C@]2(C(=O)NS(=O)(=O)C3(C)CC3)C[C@H]2/C=C\CC[C@H](C)C[C@H]1C)(C([2H])([2H])[2H])C(F)(F)F ?
Response: < 7.06

Request: Would you mind telling me what pEC50 value was observed for COc1ccc2c(O[C@@H]3C[C@H]4C(=O)N[C@]5(C(=O)NS(=O)(=O)C6(C)CC6)C[C@H]5/C=C\CC[C@@H](C)C[C@@H](C)[C@H](NC(=O)C5CCN(C(C)=O)CC5)C(=O)N4C3)ncc(OC)c2c1 ?
Response: 6.99 to 8.32

Request: Would you mind telling me what pEC50 value was observed for CC[C@@H]1C[C@H](C)CC/C=C\[C@@H]2C[C@@]2(C(=O)NS(=O)(=O)C2(C)CC2)NC(=O)[C@@H]2C[C@@H](Oc3nc4c(c5ccccc35)CCCO4)CN2C(=O)[C@H]1NC(=O)OC(C)(C)C ?
Response: 9.30 to 10.00

Request: Would you mind telling me what pEC50 value was observed for CC[C@@H]1C[C@H](C)CC/C=C\[C@@H]2C[C@@]2(C(=O)NS(=O)(=O)C2(C)CC2)NC(=O)[C@@H]2C[C@@H](Oc3ncc(N4CCOCC4)c4ccccc34)CN2C(=O)[C@H]1NC(=O)OC(C)(C)C(C)(F)F ?
Response: 9.00 to 9.29
